System: T-cell
Experiment description: IL-2 secretion from T-cells stimulated with anti-CD3 antibody alone (Biological Example 2)
Type: cell-based
Condition set: 8 μM compound, primary human total T-cells, read-out: IL-2 secretion, Anti-CD3 stimulation, fold change over baseline
Measured fold induction at 8 µM accompanies every entry in the list below.

Consider the following illustrative entries.
Data request: Looking for the measured fold induction at 8 µM of Cn1cnnc1C(F)(F)[C@](C)(F)c1cccc(N2Cc3c(cc(N4CCNCC4)cc3C(F)(F)F)C2=O)c1 , can you help?
Data returned: 0.051 to 0.1

Data request: Looking for the measured fold induction at 8 µM of Cn1cnnc1CC1(c2cccc(N3Cc4c(cc(CO)cc4C(F)(F)F)C3=O)c2)COC1 , can you help?
Data returned: 0.051 to 0.1

Data request: Looking for the measured fold induction at 8 µM of C[C@H](Cc1nncn1C)c1cccc(N2Cc3c(cc([C@H](C)N4CC(O)C4)cc3C(F)(F)F)C2=O)c1 , can you help?
Data returned: > 0.201

Data request: Looking for the measured fold induction at 8 µM of C[C@H](Cc1nncn1C)c1cccc(N2Cc3c(cc(-n4cccn4)cc3C(F)(F)F)C2=O)c1 , can you help?
Data returned: > 0.201

Data request: Looking for the measured fold induction at 8 µM of Cn1cnnc1C(F)(F)[C@](C)(F)c1cccc(N2Cc3c(cc(CN4CC(C#N)C4)cc3C(F)(F)F)C2=O)c1 , can you help?
Data returned: 0.101 to 0.15

Others:
Data request: Looking for the measured fold induction at 8 µM of C[C@H](Cc1nncn1C)c1cccc(N2Cc3c(cc([C@H]4CCCNC4)cc3C(F)(F)F)C2=O)c1 , can you help?
Data returned: > 0.201

Data request: Looking for the measured fold induction at 8 µM of CC(O)c1cc2c(c(C(F)(F)F)c1)CN(c1cccc([C@@](C)(F)C(F)(F)c3nncn3C)c1)C2=O (stereo partly shown) , can you help?
Data returned: > 0.201

----------
Tested on: primary human NK cells
Experiment description: NK cell activation assessed by cytokine secretion (coculture with K562 NucRed target cells)
Format: cell-based
Condition set: K562, NK cells cocultured with K562 NucRed, 1:1 E/T, 10 μM compound, read-out: IFNγ secretion, fold change over baseline
Description: Peripheral blood mononuclear cells (PBMC) were obtained either: 1) by using Ficoll-Paque™ (GE Healthcare) for separation of peripheral blood hematopoietic cells from buffy coats of healthy human donors; or 2) directly from LeukoPak donations. […] Cell free supernatants were collected and analyzed for cytokine secretion (e.g. TNFα, IFNγ, or MIP1β) by ELISA or Luminex multiplex kits following the manufacturer's protocol. […] Readouts were reported as fold change over baseline. […]
Experimental endpoint: fold induction at 10 µM

Consider the following illustrative entries.
Data request: Entry Cc1cc2c(c(C3CC3)n1)CN(c1cccc([C@H](C)Cc3nncn3C)c1)C2=O [Compound 372] , system primary human NK cells: what fold induction at 10 µM was measured?
Data returned: 2.01 to 5

Data request: Entry C[C@H](Cc1nncn1C)c1cccc(N2Cc3c(cc(CN4CC(C)(O)C4)cc3C(F)(F)F)C2=O)c1 [Compound 397] , system primary human NK cells: what fold induction at 10 µM was measured?
Data returned: > 5

Data request: Entry C[C@H](Cc1nncn1C)c1cccc(N2Cc3c(cc(CN4CC[C@](C)(O)C4)cc3C(F)(F)F)C2=O)c1 [Compound 398] , system primary human NK cells: what fold induction at 10 µM was measured?
Data returned: > 5

Data request: Entry C[C@H](Cc1nncn1C)c1cccc(N2Cc3c(cc(CN4CC(O)C4)cc3C(F)(F)F)C2=O)c1 [Compound 393] , system primary human NK cells: what fold induction at 10 µM was measured?
Data returned: 2.01 to 5

Data request: Entry Cn1cnnc1C(F)(F)[C@](C)(F)c1cccc(N2Cc3c(cc(CN4CC[C@@H](F)C4)cc3C(F)(F)F)C2=O)c1 [Compound 450] , system primary human NK cells: what fold induction at 10 µM was measured?
Data returned: > 5

Others:
Data request: Entry Cc1cc(C(=O)Nc2cccc([C@H](C)Cc3nncn3C)c2)nc(C2CC2)n1 [Compound 195] , system primary human NK cells: what fold induction at 10 µM was measured?
Data returned: > 5

Data request: Entry Cc1n[nH]c(C)c1-c1cc2c(c(C(F)(F)F)c1)CN(c1cccc(C3(Cc4nncn4C)COC3)c1)C2=O [Compound 385] , system primary human NK cells: what fold induction at 10 µM was measured?
Data returned: 2.01 to 5

Data request: Entry C[C@H](Cc1nncn1C)c1cccc(NC(=O)c2nc(C(F)(F)F)c[nH]2)c1 [Compound 326] , system primary human NK cells: what fold induction at 10 µM was measured?
Data returned: 2.01 to 5

Data request: Entry CNCc1ccc(C(=O)Nc2cccc([C@H](C)Cc3nncn3C)c2)nc1C1CC1 [Compound 376] , system primary human NK cells: what fold induction at 10 µM was measured?
Data returned: 2.01 to 5

Data request: Entry Cc1cc(C(=O)Nc2cccc([C@@H](C)Cc3nncn3C)c2)nc(C2CC2)n1 [Compound 325] , system primary human NK cells: what fold induction at 10 µM was measured?
Data returned: 2.01 to 5

----------
System: T-cell
Experiment description: IL-2 secretion from T-cells co-stimulated with anti-CD3 and anti-CD28 antibody (Biological Example 2)
Type: cell-based, human
Condition set: Homo sapiens, T-cell, fold change over baseline; 4 μM Cbl-b inhibitor; primary human total T-cells; read-out: IL-2 secretion Anti-CD3/Anti-CD28 stimulation
Measured fold induction at 4 µM accompanies every entry in the list below.

Consider the following illustrative entries.
Data request: Looking for the measured fold induction at 4 µM of COc1nc(C(=O)Nc2cccc([C@H](C)Sc3nncn3C)c2)cc2ccccc12 [Compound 62] , can you help?
Data returned: > 7.5

Data request: Looking for the measured fold induction at 4 µM of C[C@H](Sc1nncn1C)c1cccc(N2Cc3c(ccnc3Cl)C2=O)c1 [Compound 167] , can you help?
Data returned: 2.51 to 5

Okay, next one:
Data request: Looking for the measured fold induction at 4 µM of CCNc1cc([C@H](C)Cc2nncn2C)cc(N2Cc3c(cccc3C(F)(F)F)C2=O)n1 [Compound 360] , can you help?
Data returned: > 7.5

----------
Target or test system: Cbl-b (Homo sapiens)
Experiment description: Cbl-b activity assay (Cbl-b inhibition assay), TR-FRET of Cbl-b interaction with UbcH5B-Ub
Format: biochemical
Condition set: * assay buffer containing 50 mM NaCl instead of 100 mM NaCl and 30 nM Src kinase instead of 60 nM; read-out: Cbl-b activity IC50 (μM)*
Method: The ability of candidate compounds to inhibit Cbl-b activity was measured by monitoring the interaction of Cbl-b with UbcH5B-Ub in the presence of the candidate compound. Fluorescently labeled UbcH5B-Ub was prepared by conjugating ubiquitin (Ub), labeled at its N-terminus with Bodipy-Fluorescein, to UbcH5B, an E2 enzyme, harboring a cysteine to lysine mutation at position 85. […]
Experimental endpoint: IC50

Consider the following illustrative entries.
Data request: Looking for the measured IC50 of Cc1ccc(C(=O)Nc2cccc([C@H](C)Sc3nncn3C)c2)cc1C , can you help?
Data returned: 3 to 10 µM

Data request: Looking for the measured IC50 of CC(Sc1nncn1C)c1cccc(NC(=O)c2ccc3ccc(Cl)cc3n2)c1 (stereo not drawn) , can you help?
Data returned: 3 to 10 µM

Others:
Data request: Looking for the measured IC50 of CC(Sc1nncn1C)c1ccnc(N2Cc3ccccc3C2=O)c1 (stereo not drawn) , can you help?
Data returned: 3 to 10 µM

Data request: Looking for the measured IC50 of COc1cccc(C(=O)Nc2cccc([C@H](C)Sc3nncn3C)c2)n1 , can you help?
Data returned: 0.301 to 1 µM

Data request: Looking for the measured IC50 of CC(Sc1nncn1C)c1cccc(N2Cc3ccc(Cl)cc3C2=O)c1 (stereo not drawn) , can you help?
Data returned: 3 to 10 µM

Data request: Looking for the measured IC50 of Cc1cc(C(=O)Nc2cccc([C@H](C)Sc3nncn3C)c2)ncc1Cl , can you help?
Data returned: 0.301 to 1 µM

Data request: Looking for the measured IC50 of C[C@H](Sc1nnc[nH]1)c1cccc(NC(=O)c2cc3ccccc3cn2)c1 , can you help?
Data returned: 1 to 3 µM

Data request: Looking for the measured IC50 of CC(Sc1nccn1C)c1cccc(NC(=O)c2cc3ccccc3cn2)c1 (stereo not drawn) , can you help?
Data returned: 3 to 10 µM

Data request: Looking for the measured IC50 of Cc1cc(C(=O)Nc2cccc([C@H](C)Sc3nncn3C)c2)ccc1Cl , can you help?
Data returned: 1 to 3 µM

----------
Target or test system: Cbl-b (residues 36-427) (Homo sapiens, UniProt Q13191)
Sequence (Q13191 36-427): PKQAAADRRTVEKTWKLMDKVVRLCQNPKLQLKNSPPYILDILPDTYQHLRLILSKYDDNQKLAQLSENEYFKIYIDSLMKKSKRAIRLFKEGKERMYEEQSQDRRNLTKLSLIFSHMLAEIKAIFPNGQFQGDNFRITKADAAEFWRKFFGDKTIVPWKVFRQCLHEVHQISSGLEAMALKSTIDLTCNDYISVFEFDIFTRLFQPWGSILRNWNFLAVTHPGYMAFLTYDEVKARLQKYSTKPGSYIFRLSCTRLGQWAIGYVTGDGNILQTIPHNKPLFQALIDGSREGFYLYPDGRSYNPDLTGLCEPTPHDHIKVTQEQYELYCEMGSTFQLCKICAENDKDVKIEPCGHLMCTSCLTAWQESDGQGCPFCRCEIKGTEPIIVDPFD
pKd: −log10 of the molar value.
Experimental endpoint: pKd

Consider the following illustrative entries.
Data request: Entry C[C@H](c1cc2c(c(C(F)(F)F)c1)CN(c1cccc(C3([C@@H](F)c4nncn4C)COC3)c1)C2=O)N1CCC2(CC2)C1 [Example 576] , system Cbl-b (residues 36-427) (Homo sapiens, UniProt Q13191): what pKd was measured?
Data returned: > 7.00

Data request: Entry C[C@H](Sc1nncn1C)c1cccc(NC(=O)c2cc(C(=O)N3CC[C@@H](O)C3)ccn2)c1 [Compound 139] , system Cbl-b (residues 36-427) (Homo sapiens, UniProt Q13191): what pKd was measured?
Data returned: 5.00 to 5.52

Data request: Entry C[C@H](Cc1nncn1C)c1cccc(N2Cc3c(cc(CN4CC[C@](C)(O)C4)cc3C(F)(F)F)C2=O)c1 [Compound 398] , system Cbl-b (residues 36-427) (Homo sapiens, UniProt Q13191): what pKd was measured?
Data returned: > 7.00

Data request: Entry C[C@H](Cc1nncn1C)c1cccc(NC(=O)c2[nH]nc3c2CCCC3)c1 [Compound 327] , system Cbl-b (residues 36-427) (Homo sapiens, UniProt Q13191): what pKd was measured?
Data returned: 5.52 to 6.00

Data request: Entry C[C@H](Cc1nncn1C)c1cccc(NC(=O)c2cccc(S(C)(=O)=O)n2)c1 [Compound 185] , system Cbl-b (residues 36-427) (Homo sapiens, UniProt Q13191): what pKd was measured?
Data returned: 5.52 to 6.00

Data request: Entry CC(C)c1nccc2c1CN(c1cccc([C@H](C)Cc3nncn3C)c1)C2=O [Compound 259] , system Cbl-b (residues 36-427) (Homo sapiens, UniProt Q13191): what pKd was measured?
Data returned: 5.52 to 6.00

Others:
Data request: Entry CC(CO)Nc1cc(C(C)Sc2nncn2C)cc(N2Cc3c(cccc3C(F)(F)F)C2=O)n1 (stereo not drawn) [Compound 176] , system Cbl-b (residues 36-427) (Homo sapiens, UniProt Q13191): what pKd was measured?
Data returned: 5.52 to 6.00

Data request: Entry C[C@@H](Cc1nncn1C)c1cccc(NC(=O)c2cc(S(C)(=O)=O)cc(C3CC3)n2)c1 [Compound 198b] , system Cbl-b (residues 36-427) (Homo sapiens, UniProt Q13191): what pKd was measured?
Data returned: 5.00 to 5.52

Data request: Entry C[C@H](Sc1nncn1C)c1cccc(NC(=O)c2ccnc(C3CC3)n2)c1 [Compound 76] , system Cbl-b (residues 36-427) (Homo sapiens, UniProt Q13191): what pKd was measured?
Data returned: 6.52 to 7.00

Data request: Entry COc1nc(C(=O)Nc2cc([C@H](C)Sc3nncn3C)ccn2)ccc1Cl [Compound 125] , system Cbl-b (residues 36-427) (Homo sapiens, UniProt Q13191): what pKd was measured?
Data returned: 5.00 to 5.52

Data request: Entry C[C@H](Cc1nncn1C)c1cccc(N2Cc3c(cc(C(=O)N4CC(O)C4)cc3C(F)(F)F)C2=O)c1 [Compound 276] , system Cbl-b (residues 36-427) (Homo sapiens, UniProt Q13191): what pKd was measured?
Data returned: 6.00 to 6.52

Data request: Entry C[C@H](Cc1nncn1C)c1cccc(N2Cc3c(cc(C4CC4)nc3C3CC3)C2=O)c1 [Compound 370] , system Cbl-b (residues 36-427) (Homo sapiens, UniProt Q13191): what pKd was measured?
Data returned: 6.52 to 7.00

Data request: Entry C[C@H](Cc1nncn1C)c1cccc(NC(=O)c2ccnc(C3CC3)n2)c1 [Compound 199] , system Cbl-b (residues 36-427) (Homo sapiens, UniProt Q13191): what pKd was measured?
Data returned: 6.52 to 7.00

Data request: Entry C[C@H](Cc1nncn1C)c1cccc(N2Cc3c(cc(CN4C[C@@H](F)[C@@H](O)C4)cc3C(F)(F)F)C2=O)c1 [Compound 418] , system Cbl-b (residues 36-427) (Homo sapiens, UniProt Q13191): what pKd was measured?
Data returned: > 7.00

Data request: Entry CCNc1cc([C@H](C)Cc2nncn2C)cc(N2Cc3c(cccc3C(F)(F)F)C2=O)n1 [Compound 360] , system Cbl-b (residues 36-427) (Homo sapiens, UniProt Q13191): what pKd was measured?
Data returned: > 7.00

Data request: Entry C[C@H](Cc1nncn1C)c1cccc(NC(=O)c2cc(C(C)(C)O)c(Cl)cn2)c1 [Compound 186] , system Cbl-b (residues 36-427) (Homo sapiens, UniProt Q13191): what pKd was measured?
Data returned: 6.00 to 6.52

Data request: Entry C[C@H](Sc1nncn1C)c1ccnc(NC(=O)c2cc3c(C(F)(F)F)cccc3[nH]2)c1 [Compound 120] , system Cbl-b (residues 36-427) (Homo sapiens, UniProt Q13191): what pKd was measured?
Data returned: 6.00 to 6.52

Data request: Entry C[C@H](Cc1nncn1C)c1cccc(NC(=O)c2cc(C(=O)N[C@@H]3CCNC3)ccn2)c1 [Compound 247] , system Cbl-b (residues 36-427) (Homo sapiens, UniProt Q13191): what pKd was measured?
Data returned: 5.00 to 5.52
